- Tested on: 435261-313-R-J1-PDC tumor spheroid viability;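 note: spheroids exposed to compounds for 7 days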
- PROTOCOL SUMMARY: Anticancer human tumor 435261-313-R-J1-PDC patient-derived colon adenocarcinoma cell line growth inhibition [PI3K]
- TEST SETTINGS: second compound 0.0316 µM; first compound 0.1 µM; active compounds read low; spheroids with HUVEC and MSC
Rule: measured viability, T/C below 60% gets fulfilled; anything equal to or greater than 60% gets not fulfilled.

[
  {
    "COMPOUND": "CNC(=O)c1ccc(N2C(=S)N(c3ccc(C#N)c(C(F)(F)F)c3)C(=O)C2(C)C)cc1F + Cc1nc(NC(=O)N2CCCC2C(N)=O)sc1-c1ccnc(C(C)(C)C(F)(F)F)c1",
    "EXPERIMENTAL SYSTEM": "435261-313-R-J1-PDC tumor spheroid viability",
    "GROUP": "not fulfilled"
  },
  {
    "COMPOUND": "Cn1nccc1Nc1nccc(-c2ccn(C(CO)c3ccc(Cl)c(F)c3)c(=O)c2)n1 (stereo not given) + CC(Nc1ncnc2nc[nH]c12)c1cc2cccc(Cl)c2c(=O)n1-c1ccccc1",
    "EXPERIMENTAL SYSTEM": "435261-313-R-J1-PDC tumor spheroid viability",
    "GROUP": "not fulfilled"
  },
  {
    "COMPOUND": "CCCS(=O)(=O)Nc1ccc(F)c(C(=O)c2c[nH]c3ncc(-c4ccc(Cl)cc4)cc23)c1F + COc1c(OCCCN2CCOCC2)ccc2c3n(c(=NC(=O)c4cnc(N)nc4)nc12)CCN3",
    "EXPERIMENTAL SYSTEM": "435261-313-R-J1-PDC tumor spheroid viability",
    "GROUP": "fulfilled"
  },
  {
    "COMPOUND": "C#Cc1c(F)ccc2cc(O)cc(-c3ncc4c(N5CC6CCC(C5)N6)nc(OCC56CCCN5CC(F)C6)nc4c3F)c12 (stereo not given) + CC(Nc1ncnc2nc[nH]c12)c1cc2cccc(Cl)c2c(=O)n1-c1ccccc1",
    "EXPERIMENTAL SYSTEM": "435261-313-R-J1-PDC tumor spheroid viability",
    "GROUP": "not fulfilled"
  },
  {
    "COMPOUND": "CC(C)n1nc(-c2ccc3oc(N)nc3c2)c2c(N)ncnc21 + COc1c(OCCCN2CCOCC2)ccc2c3n(c(=NC(=O)c4cnc(N)nc4)nc12)CCN3",
    "EXPERIMENTAL SYSTEM": "435261-313-R-J1-PDC tumor spheroid viability",
    "GROUP": "fulfilled"
  }
]
